Where these numbers come from: paper PMC4336329

target: human ether-à-go-go-related gene (hERG) potassium channel (human); assay: primary screen, population patch clamp on CHO cells stably expressing hERG; higher = less effect of the substance;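 also: peak tail current of the secondary pulse compared with the same well before compound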
Sequence (Q12809 whole entry, looked up): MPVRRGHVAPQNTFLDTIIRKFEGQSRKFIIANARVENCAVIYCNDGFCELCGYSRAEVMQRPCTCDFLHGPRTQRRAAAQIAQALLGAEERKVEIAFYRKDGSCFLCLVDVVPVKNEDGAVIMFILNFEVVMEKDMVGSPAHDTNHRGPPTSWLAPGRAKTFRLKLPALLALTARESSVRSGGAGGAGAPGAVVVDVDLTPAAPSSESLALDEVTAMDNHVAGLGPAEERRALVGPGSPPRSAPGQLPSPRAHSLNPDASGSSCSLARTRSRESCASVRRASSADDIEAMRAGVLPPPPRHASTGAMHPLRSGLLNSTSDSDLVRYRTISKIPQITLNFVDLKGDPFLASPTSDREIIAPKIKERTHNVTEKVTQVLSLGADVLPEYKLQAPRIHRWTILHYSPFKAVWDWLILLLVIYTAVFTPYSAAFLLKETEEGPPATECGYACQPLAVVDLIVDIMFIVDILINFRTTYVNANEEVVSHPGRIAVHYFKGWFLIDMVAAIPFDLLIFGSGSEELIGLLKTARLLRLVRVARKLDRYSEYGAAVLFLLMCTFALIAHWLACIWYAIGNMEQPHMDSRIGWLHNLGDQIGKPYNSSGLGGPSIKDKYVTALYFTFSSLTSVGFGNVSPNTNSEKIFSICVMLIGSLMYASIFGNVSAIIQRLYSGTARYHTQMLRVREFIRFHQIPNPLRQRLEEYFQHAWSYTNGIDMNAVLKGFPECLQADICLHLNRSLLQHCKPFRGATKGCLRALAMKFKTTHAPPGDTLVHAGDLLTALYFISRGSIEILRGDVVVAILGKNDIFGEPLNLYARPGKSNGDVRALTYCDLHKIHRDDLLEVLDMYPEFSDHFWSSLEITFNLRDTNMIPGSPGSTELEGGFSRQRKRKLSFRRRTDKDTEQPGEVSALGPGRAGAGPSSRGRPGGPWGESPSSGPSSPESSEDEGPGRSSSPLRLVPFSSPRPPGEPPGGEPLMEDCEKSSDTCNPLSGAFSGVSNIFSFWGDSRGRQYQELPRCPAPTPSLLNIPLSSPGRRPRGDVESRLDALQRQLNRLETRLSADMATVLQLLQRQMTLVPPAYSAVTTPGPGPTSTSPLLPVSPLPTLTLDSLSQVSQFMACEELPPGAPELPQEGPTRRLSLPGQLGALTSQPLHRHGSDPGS
Hit rate of the full screen: of about 310,000 compounds, about 14,000 (4.5%) showed an effect of 50% or more. The effect is printed as a negative number. Shown is part of a subset that was picked to be rich in strong results.
quantity: hERG current change (%, negative = inhibition) at 10uM (%)

compound | targetEntity | readoutUnits | testValue
CSc1ccc(/C=N/NC(=O)c2sccc2C)cc1 | human ether-à-go-go-related gene (hERG) potassium channel (human) | % | 15.4
CCCCN1C=CC(=C2C(=O)c3ccccc3C2=O)C=C1 | human ether-à-go-go-related gene (hERG) potassium channel (human) | % | -1.69
CCCCCCN1C=CC(=C2C(=O)c3ccccc3C2=O)C=C1 | human ether-à-go-go-related gene (hERG) potassium channel (human) | % | 10.5
COC(=O)CCC(=O)NNC(=O)c1cccc(Cl)c1 | human ether-à-go-go-related gene (hERG) potassium channel (human) | % | 16.4
CS(=O)(=O)c1ccccc1C(=O)Nc1cc2c(cc1C(=O)O)OCCCO2 | human ether-à-go-go-related gene (hERG) potassium channel (human) | % | -57.3
N#CC1=C(N)Oc2n[nH]c(-c3cccs3)c2C1C1CCCCC1 (centres unmarked) | human ether-à-go-go-related gene (hERG) potassium channel (human) | % | 8.73
CCCCCN1C=CC(=C2C(=O)c3ccccc3C2=O)C=C1 | human ether-à-go-go-related gene (hERG) potassium channel (human) | % | -61
Cc1nn(Cc2ccc(Cl)cc2)c(Cl)c1/C=N/NC(=O)c1cccnc1 | human ether-à-go-go-related gene (hERG) potassium channel (human) | % | -45.2
O=C(N/N=C/c1cccnc1)c1ccccc1 | human ether-à-go-go-related gene (hERG) potassium channel (human) | % | 17.3
COc1ccccc1C(=O)Nc1cc2c(cc1C(=O)O)OCCCO2 | human ether-à-go-go-related gene (hERG) potassium channel (human) | % | -2.13
CC1CCCC(NC(=S)NC(=O)c2cncc(Br)c2)C1C (centres unmarked) | human ether-à-go-go-related gene (hERG) potassium channel (human) | % | 21.7
